experiment: NCI Yeast Anticancer Drug Screen. Data for the rad52 strain (AID 147);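 note: 0% = growth of vehicle-treated control cultures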; details: S. cerevisiae rad52 mutant growth inhibition; at 1.2 µM; active compounds read high
Compounds without any hit were thinned out: in the full panel of roughly 79,000, 15% have a hit.
Hi there, I'd appreciate the recorded growth inhibition for every entry that follows.
Numbers only, in %.

CCCCCNC(=O)c1c(O)[nH]c(=S)[nH]c1=O | -6
CC(C)CC(NC(=O)C(N)C(C)C)C(=O)NC(CCCCN)C(=O)Nc1ccc(N(CCCl)CCCl)cc1 (stereo unspecified) | 8
c1ccc(N=c2nc(N3CCOCC3)ss2)cc1 | -3
CSc1ccccc1[As](C)C | 1
C[C@]12CCc3nonc3C1CC[C@@H]1C2CC[C@]2(C)C(=O)CCC12 (stereo partly specified) | 4

Hey, quick one: what's growth inhibition for each of these?
1. Nc1ccccc1C(=O)OCCc1ccccc1
2. c1c(N2CCOCC2)ssc1=[N+]1CCOCC1
3. CCC1(O)C(=O)OCc2c1cc1n(c2=O)Cc2cc3ccccc3nc2-1 (stereo unspecified)
4. C/C(=N\NC(N)=O)C(CN1CCOCC1)C(c1ccccc1)c1c(O)c2ccccc2oc1=O (stereo unspecified)
5. O=C(O)CCCc1cc(I)c(N(CCCl)CCCl)c(I)c1
6. CCCCN(CCCC)CC(C(C)=O)C(c1ccccc1)c1c(O)c2ccccc2oc1=O (stereo unspecified)

// result
1. -9
2. 0
3. 73
4. 1
5. -18
6. 2
